Measured values drawn from paper PMC5702341 for this set.

Target: ferroportin-hepcidin interaction (T-REx/FPN-V5 cells) (Homo sapiens, UniProt Q9NP59)
Sequence (Q9NP59 1-571): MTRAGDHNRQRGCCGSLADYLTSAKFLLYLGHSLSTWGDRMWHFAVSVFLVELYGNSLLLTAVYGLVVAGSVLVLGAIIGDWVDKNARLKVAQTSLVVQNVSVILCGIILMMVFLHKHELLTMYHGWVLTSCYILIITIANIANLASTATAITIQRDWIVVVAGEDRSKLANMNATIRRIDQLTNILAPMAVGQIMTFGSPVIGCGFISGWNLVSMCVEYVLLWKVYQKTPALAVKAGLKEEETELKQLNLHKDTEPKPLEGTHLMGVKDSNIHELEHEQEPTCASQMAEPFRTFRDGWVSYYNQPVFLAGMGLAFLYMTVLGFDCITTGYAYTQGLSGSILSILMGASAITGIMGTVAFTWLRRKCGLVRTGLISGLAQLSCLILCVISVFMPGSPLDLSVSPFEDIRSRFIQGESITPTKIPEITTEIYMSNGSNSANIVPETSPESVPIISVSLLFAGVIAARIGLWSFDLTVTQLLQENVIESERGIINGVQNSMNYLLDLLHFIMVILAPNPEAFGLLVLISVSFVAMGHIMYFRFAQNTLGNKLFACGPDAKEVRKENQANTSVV
Sequence (P81172 60-84 partner): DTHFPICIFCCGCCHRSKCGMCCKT
Assay: RhoG-hepcidin uptake assay
Format: cell-based
Details: compound 1 h prior to 250 nM RhoG-hepcidin for 1 h; read-out: IC50 inhibition of RhoG-hepcidin uptake
recorded.endpoint: IC50
Provide a numeric answer, followed by its unit.

Incoming: // returns reported IC50 for input O=S(=O)(c1ccc(Cl)cc1)c1cnc2ccccc2n1 [Compound 1, 2-[(4-chlorophenyl)sulfonyl]quinoxaline]
Outgoing: 141 nM
